test system: promastigote forms of Leishmania amazonensis (WHOM/BR/75/JOSEFA strain); assay: Antiproliferative assay (XTT), promastigote forms, 72 h; assay type: cell-based; conditions: fibroblast vs promastigote
Reported SIL-F, selectivity index (Fibroblast CC50/L. amazonensis IC50) values are given for each entry in this list.
result_type: SIL-F, selectivity index (Fibroblast CC50/L. amazonensis IC50)

structure_string: O=C(N/N=C/c1ccc(-c2cccs2)s1)c1noc(-c2ccccc2)c1CNc1ccc(Cl)cc1
experimental_value: 12.31
--
structure_string: NNC(=O)c1noc(-c2ccc([N+](=O)[O-])cc2)c1CNc1ccccc1
experimental_value: 4.71
--
structure_string: O=C(N/N=C/c1ccccc1)c1noc(-c2ccccc2)c1CNc1ccc(Cl)cc1
experimental_value: 11.57
--
structure_string: COc1ccc(NCc2c(C(=O)N/N=C/c3ccccc3)noc2-c2ccc(Cl)cc2)cc1
experimental_value: 5.45
--
structure_string: O=C(N/N=C/c1ccccn1)c1noc(-c2ccc(Cl)cc2)c1CNc1ccccc1
experimental_value: 4.32
--
structure_string: COc1ccc(NCc2c(C(=O)NN)noc2-c2ccc(F)cc2)cc1
experimental_value: 2.80
--
structure_string: COc1ccc(NCc2c(C(=O)NN)noc2-c2ccc([N+](=O)[O-])cc2)cc1
experimental_value: 6.51
--
structure_string: COc1ccc(NCc2c(C(=O)N/N=C/c3ccccn3)noc2-c2ccccc2)cc1
experimental_value: 10.3
--
structure_string: O=C(N/N=C/c1ccccc1)c1noc(-c2ccc([N+](=O)[O-])cc2)c1CNc1ccc(Cl)cc1
experimental_value: 3.01
--
structure_string: O=C(N/N=C/c1ccc(-c2cccs2)s1)c1noc(-c2ccc(F)cc2)c1CNc1ccc(Cl)cc1
experimental_value: 10.9
--
structure_string: COc1ccc(NCc2c(C(=O)N/N=C/c3ccccn3)noc2-c2ccc(F)cc2)cc1
experimental_value: 16.16
--
structure_string: O=C(N/N=C/c1ccc(-c2cccs2)s1)c1noc(-c2ccccc2)c1CNc1ccccc1
experimental_value: 4.45

====

system: epimastigote forms of Trypanosoma cruzi (Y strain); test: Antiproliferative assay (XTT), epimastigote forms, 96 h; format: cell-based; conditions: fibroblast vs epimastigote
result_type: SIT-F, selectivity index (Fibroblast CC50/T. cruzi IC50)

structure_string: O=C(N/N=C/c1ccccc1)c1noc(-c2ccccc2)c1CNc1ccccc1
experimental_value: 5.87

structure_string: NNC(=O)c1noc(-c2ccccc2)c1CNc1ccc(Cl)cc1
experimental_value: 7.38

structure_string: O=C(N/N=C/c1ccccn1)c1noc(-c2ccc(F)cc2)c1CNc1ccccc1
experimental_value: 5.79

structure_string: COc1ccc(NCc2c(C(=O)NN)noc2-c2ccc(F)cc2)cc1
experimental_value: 2.54

structure_string: O=C(N/N=C/c1ccc(-c2cccs2)s1)c1noc(-c2ccccc2)c1CNc1ccccc1
experimental_value: 3.98

structure_string: COc1ccc(NCc2c(C(=O)N/N=C/c3ccccn3)noc2-c2ccc(Cl)cc2)cc1
experimental_value: 6.00

structure_string: COc1ccc(NCc2c(C(=O)N/N=C/c3ccc(-c4cccs4)s3)noc2-c2ccc(F)cc2)cc1
experimental_value: 13.84

structure_string: O=C(N/N=C/c1ccc(-c2cccs2)s1)c1noc(-c2ccc(Cl)cc2)c1CNc1ccccc1
experimental_value: 12.76

structure_string: O=C(N/N=C/c1ccccn1)c1noc(-c2ccccc2)c1CNc1ccccc1
experimental_value: 9.80

structure_string: O=C(N/N=C/c1ccccn1)c1noc(-c2ccc(Cl)cc2)c1CNc1ccccc1
experimental_value: 4.10

structure_string: O=C(N/N=C/c1ccccc1)c1noc(-c2ccc(F)cc2)c1CNc1ccc(Cl)cc1
experimental_value: 3.86

structure_string: O=C(N/N=C/c1ccccn1)c1noc(-c2ccc(F)cc2)c1CNc1ccc(Cl)cc1
experimental_value: 3.91

structure_string: O=C(N/N=C/c1ccccn1)c1noc(-c2ccccc2)c1CNc1ccc(Cl)cc1
experimental_value: 12.57

structure_string: COc1ccc(NCc2c(C(=O)N/N=C/c3ccccc3)noc2-c2ccc(Cl)cc2)cc1
experimental_value: 4.49

structure_string: NNC(=O)c1noc(-c2ccc(F)cc2)c1CNc1ccccc1
experimental_value: 10.25

structure_string: O=C(N/N=C/c1ccccn1)c1noc(-c2ccc(Cl)cc2)c1CNc1ccc(Cl)cc1
experimental_value: 2.08

structure_string: O=C(N/N=C/c1ccccc1)c1noc(-c2ccc(Cl)cc2)c1CNc1ccccc1
experimental_value: 5.34

structure_string: NNC(=O)c1noc(-c2ccc(Cl)cc2)c1CNc1ccccc1
experimental_value: 10.93

structure_string: O=C(N/N=C/c1ccccn1)c1noc(-c2ccc([N+](=O)[O-])cc2)c1CNc1ccc(Cl)cc1
experimental_value: 4.08

structure_string: COc1ccc(NCc2c(C(=O)N/N=C/c3ccc(-c4cccs4)s3)noc2-c2ccccc2)cc1
experimental_value: 10.9

structure_string: COc1ccc(NCc2c(C(=O)N/N=C/c3ccccn3)noc2-c2ccc(F)cc2)cc1
experimental_value: 14.76

structure_string: O=C(N/N=C/c1ccccn1)c1noc(-c2ccc([N+](=O)[O-])cc2)c1CNc1ccccc1
experimental_value: 3.31

structure_string: CCOC(=O)c1noc(-c2ccc(Cl)cc2)c1CNc1ccccc1
experimental_value: 4.80

structure_string: COc1ccc(NCc2c(C(=O)NN)noc2-c2ccc([N+](=O)[O-])cc2)cc1
experimental_value: 6.02

structure_string: COc1ccc(NCc2c(C(=O)NN)noc2-c2ccccc2)cc1
experimental_value: 12.69

structure_string: NNC(=O)c1noc(-c2ccc([N+](=O)[O-])cc2)c1CNc1ccccc1
experimental_value: 4.98

structure_string: O=C(N/N=C/c1ccc(-c2cccs2)s1)c1noc(-c2ccc(F)cc2)c1CNc1ccc(Cl)cc1
experimental_value: 10.5

structure_string: NNC(=O)c1noc(-c2ccc([N+](=O)[O-])cc2)c1CNc1ccc(Cl)cc1
experimental_value: 8.12

structure_string: COc1ccc(NCc2c(C(=O)N/N=C/c3ccccc3)noc2-c2ccc(F)cc2)cc1
experimental_value: 3.91

structure_string: O=C(N/N=C/c1ccccc1)c1noc(-c2ccc(Cl)cc2)c1CNc1ccc(Cl)cc1
experimental_value: 5.70

structure_string: CCOC(=O)c1noc(-c2ccc(Cl)cc2)c1CNc1ccc(Cl)cc1
experimental_value: 4.44

structure_string: COc1ccc(NCc2c(C(=O)N/N=C/c3ccccn3)noc2-c2ccccc2)cc1
experimental_value: 9.50

structure_string: O=C(N/N=C/c1ccc(-c2cccs2)s1)c1noc(-c2ccc([N+](=O)[O-])cc2)c1CNc1ccc(Cl)cc1
experimental_value: 8.39

structure_string: NNC(=O)c1noc(-c2ccccc2)c1CNc1ccccc1
experimental_value: 4.78

structure_string: O=C(N/N=C/c1ccccc1)c1noc(-c2ccccc2)c1CNc1ccc(Cl)cc1
experimental_value: 11.91

structure_string: O=C(N/N=C/c1ccccc1)c1noc(-c2ccc(F)cc2)c1CNc1ccccc1
experimental_value: 5.47
